Test system: human Factor 7 mRNA
assayComment: Antisense inhibition of human Factor 7 mRNA in HepB3 cells, lipofectin, 50 nM, real-time RT-PCR
Assay type: cell-based
measurementConditions: HepB3 cells; gapmers targeted to nucleobases 14707 to 14732 of SEQ ID NO: 1 (Table 11)
In the oligonucleotide strings, read from the 5' end, every base follows the letter of its sugar. An asterisk marks phosphorothioate; unmarked linkages are phosphodiester. Other units and linkages are bracketed, terminal groups are in braces. A string of capitals states the bases alone. e = 2'-O-(2-methoxyethyl) (MOE); [5mC] = 5-methylcytosine; d = 2'-deoxy (DNA)
attributeMeasured: % Inhibition of human Factor 7 mRNA levels (%)
Could you give me the number in %? Just the number is fine.

407642 (antisense e[5mC]*eA*eG*e[5mC]*eA*dG*d[5mC]*d[5mC]*dT*dG*dA*dG*dG*d[5mC]*d[5mC]*eA*eG*e[5mC]*eA*eG) [compound 407642] :: 63
422201 (antisense eG*e[5mC]*e[5mC]*dT*dG*dA*dG*dG*d[5mC]*d[5mC]*dA*dG*d[5mC]*dA*dG*dA*dT*e[5mC]*eA*e[5mC]) [compound 422201] :: 71
422279 (antisense eA*eG*d[5mC]*d[5mC]*dT*dG*dA*dG*dG*d[5mC]*d[5mC]*dA*dG*d[5mC]*dA*eG*eA*eT*e[5mC]*eA) [compound 422279] :: 56
422203 (antisense e[5mC]*eA*eG*d[5mC]*d[5mC]*dT*dG*dA*dG*dG*d[5mC]*d[5mC]*dA*dG*d[5mC]*dA*dG*eA*eT*e[5mC]) [compound 422203] :: 52
422206 (antisense e[5mC]*eA*eG*d[5mC]*dA*dG*d[5mC]*d[5mC]*dT*dG*dA*dG*dG*d[5mC]*d[5mC]*dA*dG*e[5mC]*eA*eG) [compound 422206] :: 65

Quick one: % Inhibition of human Factor 7 mRNA levels of 422200 (antisense e[5mC]*e[5mC]*eT*dG*dA*dG*dG*d[5mC]*d[5mC]*dA*dG*d[5mC]*dA*dG*dA*dT*d[5mC]*eA*e[5mC]*eG) [compound 422200] ? 58

Quick one: % Inhibition of human Factor 7 mRNA levels of 422133 (antisense eA*eG*e[5mC]*eA*eG*d[5mC]*d[5mC]*dT*dG*dA*dG*dG*d[5mC]*d[5mC]*dA*eG*e[5mC]*eA*eG*eA) [compound 422133] ? 65

Quick one: % Inhibition of human Factor 7 mRNA levels of 416477 (antisense e[5mC]*eA*eG*e[5mC]*e[5mC]*dT*dG*dA*dG*dG*d[5mC]*d[5mC]*dA*dG*d[5mC]*eA*eG*eA*eT*e[5mC]) [compound 416477] ? 71

Quick one: % Inhibition of human Factor 7 mRNA levels of 422205 (antisense eA*eG*e[5mC]*dA*dG*d[5mC]*d[5mC]*dT*dG*dA*dG*dG*d[5mC]*d[5mC]*dA*dG*d[5mC]*eA*eG*eA) [compound 422205] ? 63

Quick one: % Inhibition of human Factor 7 mRNA levels of 422131 (antisense eA*eG*e[5mC]*e[5mC]*eT*dG*dA*dG*dG*d[5mC]*d[5mC]*dA*dG*d[5mC]*dA*eG*eA*eT*e[5mC]*eA) [compound 422131] ? 68

Quick one: % Inhibition of human Factor 7 mRNA levels of 407641 (antisense e[5mC]*e[5mC]*eT*eG*eA*dG*dG*d[5mC]*d[5mC]*dA*dG*d[5mC]*dA*dG*dA*eT*e[5mC]*eA*e[5mC]*eG) [compound 407641] ? 68

----------
Tested on: human Factor 7 mRNA
assayComment: Dose-dependent antisense inhibition of human Factor 7 in HepB3 cells, transfection with electroporation
Assay type: cell-based
measurementConditions: 50 μM, 16 hours (Example 8, Table 16)
In the oligonucleotide strings, read from the 5' end, every base follows the letter of its sugar. An asterisk marks phosphorothioate; unmarked linkages are phosphodiester. Other units and linkages are bracketed, terminal groups are in braces. A string of capitals states the bases alone. e = 2'-O-(2-methoxyethyl) (MOE); [5mC] = 5-methylcytosine; d = 2'-deoxy (DNA)
attributeMeasured: percent inhibition of Factor 7 mRNA, relative to untreated control cells (%)
Could you give me the number in %? Just the number is fine.

422183 (antisense eG*e[5mC]*eG*d[5mC]*d[5mC]*dA*d[5mC]*d[5mC]*d[5mC]*dG*d[5mC]*d[5mC]*dG*dG*d[5mC]*dT*d[5mC]*eT*eG*e[5mC]) [compound 422183] :: 64
422087 (antisense e[5mC]*eA*eT*eG*e[5mC]*dA*dT*dG*dG*dT*dG*dA*dT*dG*d[5mC]*eT*eT*e[5mC]*eT*eG) [compound 422087] :: 80
407935 (antisense eA*eT*eG*e[5mC]*eA*dT*dG*dG*dT*dG*dA*dT*dG*d[5mC]*dT*eT*e[5mC]*eT*eG*eA) [compound 407935] :: 90
422142 (antisense eG*eA*eG*eT*eT*d[5mC]*dT*dG*d[5mC]*dA*dG*dG*dA*dG*d[5mC]*eG*eG*e[5mC]*e[5mC]*eT) [compound 422142] :: 65

# evaluate next
Quick one: percent inhibition of Factor 7 mRNA, relative to untreated control cells of 422296 (antisense e[5mC]*e[5mC]*dG*dA*dG*dT*dT*d[5mC]*dT*dG*d[5mC]*dA*dG*dG*dA*eG*e[5mC]*eG*eG*e[5mC]) [compound 422296] ? 80

----------
Test system: human Factor 7 mRNA
assayComment: Antisense inhibition of human Factor 7 mRNA in HepB3 cells, lipofectin, 50 nM, real-time RT-PCR
Format: cell-based
measurementConditions: Example 1; HepB3 cells, lipofectin, 50 nM, ~24 h, relative to untreated control cells
In the oligonucleotide strings, read from the 5' end, every base follows the letter of its sugar. An asterisk marks phosphorothioate; unmarked linkages are phosphodiester. Other units and linkages are bracketed, terminal groups are in braces. A string of capitals states the bases alone. e = 2'-O-(2-methoxyethyl) (MOE); [5mC] = 5-methylcytosine; d = 2'-deoxy (DNA)
attributeMeasured: % Inhibition (human Factor 7 mRNA) (%)
Could you give me the number in %? Just the number is fine.

Quick one: % Inhibition (human Factor 7 mRNA) of 407598 (antisense e[5mC]*e[5mC]*eA*eT*eG*dA*dT*dG*dA*dA*dA*dT*d[5mC]*dT*d[5mC]*eT*eG*e[5mC]*eA*eG) [compound 407598] ? 72

Quick one: % Inhibition (human Factor 7 mRNA) of 407604 (antisense e[5mC]*eA*e[5mC]*eA*e[5mC]*dT*dG*dG*dT*d[5mC]*d[5mC]*d[5mC]*d[5mC]*dA*dT*e[5mC]*eA*e[5mC]*eT*eG) [compound 407604] ? 34

Quick one: % Inhibition (human Factor 7 mRNA) of 407911 (antisense e[5mC]*e[5mC]*e[5mC]*e[5mC]*eT*dT*dG*d[5mC]*dA*dG*dG*dA*dG*dT*d[5mC]*e[5mC]*eT*eT*eG*e[5mC]) [compound 407911] ? 74

----------
Tested on: human Factor 7 mRNA
assayComment: Antisense inhibition of human Factor 7 mRNA in HepB3 cells, lipofectin, 50 nM, real-time RT-PCR
Assay type: cell-based
measurementConditions: Example 1; HepB3 cells, lipofectin, 50 nM, ~24 h, relative to untreated control cells
In the oligonucleotide strings, read from the 5' end, every base follows the letter of its sugar. An asterisk marks phosphorothioate; unmarked linkages are phosphodiester. Other units and linkages are bracketed, terminal groups are in braces. A string of capitals states the bases alone. e = 2'-O-(2-methoxyethyl) (MOE); [5mC] = 5-methylcytosine; d = 2'-deoxy (DNA)
attributeMeasured: % Inhibition (human Factor 7 mRNA) (%)
Could you give me the number in %? Just the number is fine.

Answered examples (3):
407954 (antisense e[5mC]*eA*eG*eG*eG*dA*dG*dA*dG*dA*dA*d[5mC]*dA*dT*d[5mC]*e[5mC]*eA*eA*eT*eT) [compound 407954] :: 39
407641 (antisense e[5mC]*e[5mC]*eT*eG*eA*dG*dG*d[5mC]*d[5mC]*dA*dG*d[5mC]*dA*dG*dA*eT*e[5mC]*eA*e[5mC]*eG) [compound 407641] :: 94
407929 (antisense eG*e[5mC]*eA*eG*eA*dG*d[5mC]*dA*dG*d[5mC]*dA*dG*d[5mC]*d[5mC]*dT*eG*eA*eG*eG*e[5mC]) [compound 407929] :: 53

Quick one: % Inhibition (human Factor 7 mRNA) of 407962 (antisense eT*eT*eG*eG*eA*dA*dG*d[5mC]*dA*dG*d[5mC]*d[5mC]*d[5mC]*dA*d[5mC]*eG*eG*e[5mC]*eT*eG) [compound 407962] ? 41

Quick one: % Inhibition (human Factor 7 mRNA) of 407612 (antisense eA*eG*eA*eT*e[5mC]*dA*dG*d[5mC]*dT*dG*dG*dT*d[5mC]*dA*dT*e[5mC]*e[5mC]*eT*eT*eG) [compound 407612] ? 82

Quick one: % Inhibition (human Factor 7 mRNA) of 407939 (antisense eT*eG*e[5mC]*eA*eG*d[5mC]*d[5mC]*d[5mC]*dG*dG*d[5mC]*dA*d[5mC]*d[5mC]*d[5mC]*eA*eG*e[5mC]*eG*eA) [compound 407939] ? 93

Quick one: % Inhibition (human Factor 7 mRNA) of 407629 (antisense eT*e[5mC]*eA*eG*eT*dG*dA*dG*dG*dA*d[5mC]*d[5mC]*dA*d[5mC]*dG*eG*eG*e[5mC]*eT*eG) [compound 407629] ? 34

Quick one: % Inhibition (human Factor 7 mRNA) of 407904 (antisense eG*eA*eA*eA*e[5mC]*dA*dG*dT*dG*dG*dG*d[5mC]*d[5mC]*dG*d[5mC]*eG*eG*eA*eG*eA) [compound 407904] ? 83

Quick one: % Inhibition (human Factor 7 mRNA) of 407617 (antisense eT*e[5mC]*e[5mC]*eA*e[5mC]*dA*dT*dG*dG*dA*dT*dA*dT*dT*d[5mC]*eA*eA*e[5mC]*eT*eG) [compound 407617] ? 67

Quick one: % Inhibition (human Factor 7 mRNA) of 407627 (antisense eG*e[5mC]*e[5mC]*e[5mC]*eA*dG*d[5mC]*dA*d[5mC]*d[5mC]*dG*d[5mC]*dG*dA*dT*e[5mC]*eA*eG*eG*eT) [compound 407627] ? 79

Quick one: % Inhibition (human Factor 7 mRNA) of 407898 (antisense e[5mC]*e[5mC]*eA*eG*e[5mC]*dA*dG*dA*dG*dA*dG*dT*dA*d[5mC]*d[5mC]*e[5mC]*e[5mC]*eT*e[5mC]*eG) [compound 407898] ? 49
